Can you tell me GI50 for the items I'm about to list?
# Tested on: 786-0
# TEST METHOD NOTES: NCI tumour cell line growth inhibition, 48 h
The whole screen tested about 57,000 sequences, of which about 3,500 (6.1%) were called active. Shown is part of a subset that was picked to be rich in actives. Entries with a potency or affinity are not part of this list.
Only the number, expressed in nM, is required.

Q) What value of GI50 on 786-0 does [Bis(aminomethyl)pentamethylenesilane]tetrachloropaltinum(IV), CHEMBL2146204 have?
A) 1220

Q) What value of GI50 on 786-0 does [Bis(aminomethyl)diethylsilane]tetrachloroplatinum(IV), CHEMBL2146203 have?
A) 2180

Q) Provide the documented GI50 with 786-0 as the system for [Bis(aminomethyl)pentamethylenesilane]dichloropaltinum(II), CHEMBL2146202
A) 916

Q) Can you look up GI50 on 786-0 for cis-Bis[[(trimethylsilyl)methyl]amino]tetrachloroplatinum(IV), CHEMBL2146191 ?
A) 5710

Q) Notebook: pull reported GI50 for 786-0, entry [Bis(aminomethyl)ethylmethylsilane]tetrachloroplatinum(IV), CHEMBL2146192
A) 1340

Q) Give 786-0 GI50 for CISPLATIN, CHEMBL11359
A) 1100

Q) Notebook: pull reported GI50 for 786-0, entry mu-(1,7-nanodiamine-N,N')bis-(cis-aminedichloroplatimum (II)), CHEMBL2146215
A) 8730

Q) # query: GI50 | item [Bis(aminomethyl)dimethylsilane]dichloroplatinum (II), CHEMBL2146201 | system: 786-0
A) 6140
